- system-under-test: SMARCA2 (Homo sapiens, UniProt P51531)
- Sequence (P51531 whole entry): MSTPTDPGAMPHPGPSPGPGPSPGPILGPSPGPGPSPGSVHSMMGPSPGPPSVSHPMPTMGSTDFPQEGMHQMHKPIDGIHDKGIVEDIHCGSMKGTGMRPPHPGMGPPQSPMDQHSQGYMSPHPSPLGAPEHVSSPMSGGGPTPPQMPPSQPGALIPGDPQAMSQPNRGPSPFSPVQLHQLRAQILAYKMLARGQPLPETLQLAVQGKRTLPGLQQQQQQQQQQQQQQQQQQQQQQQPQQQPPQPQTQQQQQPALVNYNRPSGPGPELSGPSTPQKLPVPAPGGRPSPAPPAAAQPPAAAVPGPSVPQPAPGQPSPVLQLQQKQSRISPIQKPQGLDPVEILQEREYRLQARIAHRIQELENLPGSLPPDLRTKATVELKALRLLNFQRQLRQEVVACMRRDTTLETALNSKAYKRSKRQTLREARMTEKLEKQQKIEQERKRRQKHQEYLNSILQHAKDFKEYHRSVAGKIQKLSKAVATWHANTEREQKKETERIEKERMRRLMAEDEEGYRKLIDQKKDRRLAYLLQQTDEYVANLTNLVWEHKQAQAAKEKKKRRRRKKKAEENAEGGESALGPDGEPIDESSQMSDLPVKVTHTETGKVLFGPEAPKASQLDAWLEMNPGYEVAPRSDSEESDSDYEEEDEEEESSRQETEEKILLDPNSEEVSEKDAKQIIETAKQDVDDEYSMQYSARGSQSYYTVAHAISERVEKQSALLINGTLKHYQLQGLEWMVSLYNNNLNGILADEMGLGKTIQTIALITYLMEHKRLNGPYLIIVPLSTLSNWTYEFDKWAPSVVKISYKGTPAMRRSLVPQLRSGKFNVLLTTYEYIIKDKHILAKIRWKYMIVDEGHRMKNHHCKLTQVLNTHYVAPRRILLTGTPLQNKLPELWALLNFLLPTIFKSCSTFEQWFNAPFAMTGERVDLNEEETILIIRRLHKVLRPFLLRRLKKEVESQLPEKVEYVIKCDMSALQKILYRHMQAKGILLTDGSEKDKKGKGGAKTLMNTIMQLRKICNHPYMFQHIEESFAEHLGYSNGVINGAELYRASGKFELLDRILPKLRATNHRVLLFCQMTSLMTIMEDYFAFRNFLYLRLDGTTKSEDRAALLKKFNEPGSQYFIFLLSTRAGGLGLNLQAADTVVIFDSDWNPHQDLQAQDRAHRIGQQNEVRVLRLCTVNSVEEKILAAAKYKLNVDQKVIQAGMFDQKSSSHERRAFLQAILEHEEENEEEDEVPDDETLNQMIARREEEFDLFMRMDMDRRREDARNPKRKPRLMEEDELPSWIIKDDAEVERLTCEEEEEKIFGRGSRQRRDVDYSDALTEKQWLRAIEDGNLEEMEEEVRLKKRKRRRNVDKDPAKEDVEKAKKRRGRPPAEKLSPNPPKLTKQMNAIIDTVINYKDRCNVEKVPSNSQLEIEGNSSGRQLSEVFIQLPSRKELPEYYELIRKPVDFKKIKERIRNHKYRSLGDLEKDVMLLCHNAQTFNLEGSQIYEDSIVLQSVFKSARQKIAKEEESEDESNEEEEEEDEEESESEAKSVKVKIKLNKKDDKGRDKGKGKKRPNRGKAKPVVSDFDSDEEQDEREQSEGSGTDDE
- test-name: SMARCA2 Western blot MV4-11 degradation
- Format: cell-based
- measurement-parameters: MV4-11, MV4-11 cells, 24 h, read-out: SMARCA2 WB MV411 degradation 24 h: Average Dmax %
measurement-kind: Dmax

In: For the compound Cc1ncsc1-c1ccc(CNC(=O)[C@@H]2C[C@@H](O)CN2C(=O)[C@@H](NC(=O)CN2CCN([C@H]3CC[C@@H](c4cnc(N5C6CCC5CN(c5cc(-c7ccccc7O)nnc5N)C6)nc4)CC3)CC2)C(C)(C)C)cc1 (single isomer, unassigned) , report Dmax.
Out: > 90%

In: For the compound Cc1ncsc1-c1ccc(CNC(=O)[C@@H]2C[C@@H](OC(=O)[C@H](C)N)CN2C(=O)[C@@H](NC(=O)[C@H]2CC[C@H](c3cnc(N4C5CCC4CN(c4cc(-c6ccccc6O)nnc4N)C5)nc3)CC2)C(C)(C)C)cc1 , report Dmax.
Out: > 90%

In: For the compound Cc1ncsc1-c1ccc(CNC(=O)[C@@H]2C[C@@H](O)CN2C(=O)[C@@H](NC(=O)C2CCC(CN3CCC(n4cc(-c5cc(-c6ccccc6O)nnc5N)cn4)CC3)CC2)C(C)(C)C)cc1 (stereo partly shown) , report Dmax.
Out: > 90%

In: For the compound Cc1ncsc1-c1ccc(CNC(=O)[C@@H]2C[C@@H](O)CN2C(=O)[C@@H](NC(=O)CN2CCC(c3cnc(N4C5CCC4CN(c4cc(-c6ccccc6O)nnc4N)C5)nc3)CC2)C(C)(C)C)c(C(F)(F)F)c1 , report Dmax.
Out: > 90%
